Just for reference, PubChem BioAssay (EPA / NIEHS) is where these values come from.

- Read-out: growth arrest and DNA damage 45 (GADD45B), GADD45B (gene 4616)
- METHOD: LTEA_HepaRG_GADD45B: Life Technologies and Expression Analysis (LTEA) Assay for growth arrest and DNA damage 45 (GADD45B) using HepaRG (AID 2283461)
- SETUP CONDITIONS: mRNA level, 48 h; actives raise or lower the signal
Activity calls are given as the source filed them. How the source made its calls: active means hit-call score of the fitted dose curve at least 0.9, where 1 is the maximum; inactive means score below 0.9.
Return exactly one item of active, inactive

Ask | Short answer needed: outcome of this test for Cc1cc(C)nc(Nc2ccccc2)n1 ?
Reply | inactive

Ask | Short answer needed: outcome of this test for COP(=S)(OC)Oc1ccc([N+](=O)[O-])c(C)c1 ?
Reply | inactive

Ask | Short answer needed: outcome of this test for COCC(C)N(C(=O)CCl)c1c(C)csc1C (stereo not drawn) ?
Reply | active

Ask | Short answer needed: outcome of this test for Nc1c(Cl)c(F)nc(OCC(=O)O)c1Cl ?
Reply | inactive

Ask | Short answer needed: outcome of this test for CC(C)N1C(=O)c2ccccc2NS1(=O)=O ?
Reply | inactive

Ask | Short answer needed: outcome of this test for Cc1c(COC(=O)[C@@H]2[C@H](/C=C(\Cl)C(F)(F)F)C2(C)C)cccc1-c1ccccc1 ?
Reply | inactive

Ask | Short answer needed: outcome of this test for O=C(Nc1ccccc1-c1ccc(Cl)cc1)c1cccnc1Cl ?
Reply | inactive

Ask | Short answer needed: outcome of this test for CNC(=O)Oc1cccc2ccccc12 ?
Reply | inactive

Ask | Short answer needed: outcome of this test for CC(C)Oc1cccc(NC(=O)c2ccccc2C(F)(F)F)c1 ?
Reply | inactive

Ask | Short answer needed: outcome of this test for CC(C)N1C(=O)N(c2ccccc2)CSC1=NC(C)(C)C ?
Reply | inactive

Ask | Short answer needed: outcome of this test for Clc1nc(Cl)nc(Nc2ccccc2Cl)n1 ?
Reply | inactive

Ask | Short answer needed: outcome of this test for CC1(C)CCC(=Cc2ccc(Cl)cc2)C1(O)Cn1cncn1 (stereo not drawn) ?
Reply | inactive

Ask | Short answer needed: outcome of this test for CCOP(=S)(OCC)Oc1nc(Cl)n(C(C)C)n1 ?
Reply | inactive

====

- TEST TARGET: Nuclear receptor subfamily 1 group I member 2 (Homo sapiens) (UniProt O75469)
- Sequence (O75469 whole entry, looked up): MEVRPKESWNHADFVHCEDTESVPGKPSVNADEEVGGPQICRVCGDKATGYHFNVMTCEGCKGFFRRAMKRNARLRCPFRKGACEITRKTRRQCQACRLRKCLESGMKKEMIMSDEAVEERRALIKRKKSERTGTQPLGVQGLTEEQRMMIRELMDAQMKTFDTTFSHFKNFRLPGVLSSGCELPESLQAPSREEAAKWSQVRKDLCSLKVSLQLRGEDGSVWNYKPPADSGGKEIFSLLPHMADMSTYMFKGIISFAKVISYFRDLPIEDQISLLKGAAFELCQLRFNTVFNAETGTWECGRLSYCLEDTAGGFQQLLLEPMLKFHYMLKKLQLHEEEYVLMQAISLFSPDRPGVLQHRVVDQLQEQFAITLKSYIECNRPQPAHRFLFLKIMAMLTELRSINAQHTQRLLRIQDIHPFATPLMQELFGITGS
- METHOD: ATG_PXR_TRANS: Attagene TRANS-FACTORIAL HepG2 Assay for human Pregnane X Receptor (PXR) (AID 2283008)
Records with an inconclusive call do not appear. The source made the active and inactive calls. The calls were made as follows: active = hit-call score of the fitted dose curve at least 0.9, where 1 is the maximum; inconclusive = response in the unintended direction; inactive = score below 0.9.
Return exactly one item of active, inactive

Ask | Short answer needed: outcome of this test for COc1cc(OC)nc(NC(=O)NS(=O)(=O)c2ncccc2OCC(F)(F)F)n1 ?
Reply | inactive

Ask | Short answer needed: outcome of this test for CCCCOCN(C(=O)CCl)c1c(CC)cccc1CC ?
Reply | inactive

Ask | Short answer needed: outcome of this test for CN=C=S ?
Reply | inactive

Ask | Short answer needed: outcome of this test for N#CN=C1SCCN1Cc1ccc(Cl)nc1 ?
Reply | inactive

Ask | Short answer needed: outcome of this test for N#Cc1c[nH]cc1-c1cccc2c1OC(F)(F)O2 ?
Reply | inactive

Ask | Short answer needed: outcome of this test for Cc1c(COC(=O)[C@@H]2[C@H](/C=C(\Cl)C(F)(F)F)C2(C)C)cccc1-c1ccccc1 ?
Reply | inactive

Ask | Short answer needed: outcome of this test for COC(=O)c1c(C(F)F)nc(C(F)(F)F)c(C2=NCCS2)c1CC(C)C ?
Reply | active

Ask | Short answer needed: outcome of this test for Cc1nc(N(C)C)nc(OC(=O)N(C)C)c1C ?
Reply | inactive

Ask | Short answer needed: outcome of this test for Cc1cc(C)nc(Nc2ccccc2)n1 ?
Reply | inactive

Ask | Short answer needed: outcome of this test for CCOP(=O)(OCC)Oc1nc(Cl)c(Cl)cc1Cl ?
Reply | inactive

Ask | Short answer needed: outcome of this test for CC(C)N1C(=O)N(c2ccccc2)CSC1=NC(C)(C)C ?
Reply | inactive

Ask | Short answer needed: outcome of this test for COc1ccc(-c2ccccc2)cc1NNC(=O)OC(C)C ?
Reply | inactive
